The values you see were collected from the NIST ThermoML archive (doi:10.1021/je200434a).

details: 348.15 K; 101.33 kPa; Liquid; Concentric cylinders viscometry
Lab note - cut at 50 mPa·s for viscosity: YES if strictly below, NO if not.

Consider the worked cases shown below.
CCCCOS(=O)(=O)[O-].CC[n+]1ccn(C)c1 [3-ethyl-1-methylimidazolium butyl sulfate] : YES
CCn1cc[n+](C)c1.COS(=O)(=O)[O-] [1-ethyl-3-methylimidazolium methylsulfate] : YES
CCn1cc[n+](C)c1.O=S(=O)([O-])O [1-ethyl-3-methylimidazolium hydrogen sulfate] : NO

Now look at this entry.
Exercise: # TODO verify viscosity < 50 mPa·s strictly for this compound: CCCCCCOS(=O)(=O)[O-].CC[n+]1ccn(C)c1 [3-ethyl-1-methyl-1H-imidazolium hexyl sulfate]
Key: YES
